// reported Max (% of), CHTX, CEM, 1.0 uM for each item listed
Biological target: CXCR4 receptor (human, UniProt P61073 1-352)
Sequence (P61073 whole entry): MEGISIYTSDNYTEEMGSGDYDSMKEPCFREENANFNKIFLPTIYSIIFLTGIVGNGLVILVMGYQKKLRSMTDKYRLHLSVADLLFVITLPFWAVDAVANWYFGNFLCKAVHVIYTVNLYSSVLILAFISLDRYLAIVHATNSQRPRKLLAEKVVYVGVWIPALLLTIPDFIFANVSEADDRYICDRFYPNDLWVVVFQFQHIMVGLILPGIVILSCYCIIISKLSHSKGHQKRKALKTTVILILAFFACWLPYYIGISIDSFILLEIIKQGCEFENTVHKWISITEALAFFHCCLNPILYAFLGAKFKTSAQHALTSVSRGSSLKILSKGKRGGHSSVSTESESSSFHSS
Test: cell-based or functional assay
Ends that are not written are not given here. * marks the point of attachment. Palmitoyl = CCCCCCCCCCCCCCCC(=O)*; NHhexadecyl = CCCCCCCCCCCCCCCCN*
metric: Max (% of), CHTX, CEM, 1.0 uM (%)

binder | metric | assay.value
Palmitoyl-KKLRSMTDKYRLHLSV-NH2 (SMILES CCCCCCCCCCCCCCCC(=O)N[C@@H](CCCCN)C(=O)N[C@@H](CCCCN)C(=O)N[C@@H](CC(C)C)C(=O)N[C@@H](CCCNC(=N)N)C(=O)N[C@@H](CO)C(=O)N[C@@H](CCSC)C(=O)N[C@H](C(=O)N[C@@H](CC(=O)O)C(=O)N[C@@H](CCCCN)C(=O)N[C@@H](Cc1ccc(O)cc1)C(=O)N[C@@H](CCCNC(=N)N)C(=O)N[C@@H](CC(C)C)C(=O)N[C@@H](Cc1c[nH]cn1)C(=O)N[C@@H](CC(C)C)C(=O)N[C@@H](CO)C(=O)N[C@H](C(N)=O)C(C)C)[C@@H](C)O) [CXCR4 i1 loop compound 41] | Max (% of), CHTX, CEM, 1.0 uM | 76.8
MGYQKKLRSMTDKYRI-NH2 (not fully specified (N-terminus); also: further groups not given here) [CXCR4 i1 loop compound 48] | Max (% of), CHTX, CEM, 1.0 uM | 53.5
Palmitoyl-SGYQKKLRSSTD-NH2 (SMILES CCCCCCCCCCCCCCCC(=O)N[C@@H](CO)C(=O)NCC(=O)N[C@@H](Cc1ccc(O)cc1)C(=O)N[C@@H](CCC(N)=O)C(=O)N[C@@H](CCCCN)C(=O)N[C@@H](CCCCN)C(=O)N[C@@H](CC(C)C)C(=O)N[C@@H](CCCNC(=N)N)C(=O)N[C@@H](CO)C(=O)N[C@@H](CO)C(=O)N[C@H](C(=O)N[C@@H](CC(=O)O)C(N)=O)[C@@H](C)O) [CXCR4 i1 loop compound 69] | Max (% of), CHTX, CEM, 1.0 uM | 93.1
Ac-MGYQKKLRSMTDK-NHhexadecyl (SMILES CCCCCCCCCCCCCCCCNC(=O)[C@H](CCCCN)NC(=O)[C@H](CC(=O)O)NC(=O)[C@@H](NC(=O)[C@H](CCSC)NC(=O)[C@H](CO)NC(=O)[C@H](CCCNC(=N)N)NC(=O)[C@H](CC(C)C)NC(=O)[C@H](CCCCN)NC(=O)[C@H](CCCCN)NC(=O)[C@H](CCC(N)=O)NC(=O)[C@H](Cc1ccc(O)cc1)NC(=O)CNC(=O)[C@H](CCSC)NC(C)=O)[C@@H](C)O) [CXCR4 i1 loop compound 59] | Max (% of), CHTX, CEM, 1.0 uM | 84.5
Palmitoyl-MGYQKKLRSMTDKY-NH2 (SMILES CCCCCCCCCCCCCCCC(=O)N[C@@H](CCSC)C(=O)NCC(=O)N[C@@H](Cc1ccc(O)cc1)C(=O)N[C@@H](CCC(N)=O)C(=O)N[C@@H](CCCCN)C(=O)N[C@@H](CCCCN)C(=O)N[C@@H](CC(C)C)C(=O)N[C@@H](CCCNC(=N)N)C(=O)N[C@@H](CO)C(=O)N[C@@H](CCSC)C(=O)N[C@H](C(=O)N[C@@H](CC(=O)O)C(=O)N[C@@H](CCCCN)C(=O)N[C@@H](Cc1ccc(O)cc1)C(N)=O)[C@@H](C)O) [CXCR4 i1 loop compound 37] | Max (% of), CHTX, CEM, 1.0 uM | 97.8
Palmitoyl-VMGYQKKLRSMTD-NH2 (SMILES CCCCCCCCCCCCCCCC(=O)N[C@H](C(=O)N[C@@H](CCSC)C(=O)NCC(=O)N[C@@H](Cc1ccc(O)cc1)C(=O)N[C@@H](CCC(N)=O)C(=O)N[C@@H](CCCCN)C(=O)N[C@@H](CCCCN)C(=O)N[C@@H](CC(C)C)C(=O)N[C@@H](CCCNC(=N)N)C(=O)N[C@@H](CO)C(=O)N[C@@H](CCSC)C(=O)N[C@H](C(=O)N[C@@H](CC(=O)O)C(N)=O)[C@@H](C)O)C(C)C) [CXCR4 i1 loop compound 35] | Max (% of), CHTX, CEM, 1.0 uM | 57
Palmitoyl-MGYQKKLRSMTDKYRI-NH2 (SMILES CCCCCCCCCCCCCCCC(=O)N[C@@H](CCSC)C(=O)NCC(=O)N[C@@H](Cc1ccc(O)cc1)C(=O)N[C@@H](CCC(N)=O)C(=O)N[C@@H](CCCCN)C(=O)N[C@@H](CCCCN)C(=O)N[C@@H](CC(C)C)C(=O)N[C@@H](CCCNC(=N)N)C(=O)N[C@@H](CO)C(=O)N[C@@H](CCSC)C(=O)N[C@H](C(=O)N[C@@H](CC(=O)O)C(=O)N[C@@H](CCCCN)C(=O)N[C@@H](Cc1ccc(O)cc1)C(=O)N[C@@H](CCCNC(=N)N)C(=O)N[C@H](C(N)=O)[C@@H](C)CC)[C@@H](C)O) [CXCR4 i1 loop compound 49] | Max (% of), CHTX, CEM, 1.0 uM | 62.7
Palmitoyl-MGYQKKLRSMTDK-NH2 (SMILES CCCCCCCCCCCCCCCC(=O)N[C@@H](CCSC)C(=O)NCC(=O)N[C@@H](Cc1ccc(O)cc1)C(=O)N[C@@H](CCC(N)=O)C(=O)N[C@@H](CCCCN)C(=O)N[C@@H](CCCCN)C(=O)N[C@@H](CC(C)C)C(=O)N[C@@H](CCCNC(=N)N)C(=O)N[C@@H](CO)C(=O)N[C@@H](CCSC)C(=O)N[C@H](C(=O)N[C@@H](CC(=O)O)C(=O)N[C@@H](CCCCN)C(N)=O)[C@@H](C)O) [CXCR4 i1 loop compound 36] | Max (% of), CHTX, CEM, 1.0 uM | 119
